- Tested on: furin, P09958;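 note: purified furin at 1:10 enzyme:substrate in 50 mM HEPES pH 7.5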
- Sequence (P09958 whole entry): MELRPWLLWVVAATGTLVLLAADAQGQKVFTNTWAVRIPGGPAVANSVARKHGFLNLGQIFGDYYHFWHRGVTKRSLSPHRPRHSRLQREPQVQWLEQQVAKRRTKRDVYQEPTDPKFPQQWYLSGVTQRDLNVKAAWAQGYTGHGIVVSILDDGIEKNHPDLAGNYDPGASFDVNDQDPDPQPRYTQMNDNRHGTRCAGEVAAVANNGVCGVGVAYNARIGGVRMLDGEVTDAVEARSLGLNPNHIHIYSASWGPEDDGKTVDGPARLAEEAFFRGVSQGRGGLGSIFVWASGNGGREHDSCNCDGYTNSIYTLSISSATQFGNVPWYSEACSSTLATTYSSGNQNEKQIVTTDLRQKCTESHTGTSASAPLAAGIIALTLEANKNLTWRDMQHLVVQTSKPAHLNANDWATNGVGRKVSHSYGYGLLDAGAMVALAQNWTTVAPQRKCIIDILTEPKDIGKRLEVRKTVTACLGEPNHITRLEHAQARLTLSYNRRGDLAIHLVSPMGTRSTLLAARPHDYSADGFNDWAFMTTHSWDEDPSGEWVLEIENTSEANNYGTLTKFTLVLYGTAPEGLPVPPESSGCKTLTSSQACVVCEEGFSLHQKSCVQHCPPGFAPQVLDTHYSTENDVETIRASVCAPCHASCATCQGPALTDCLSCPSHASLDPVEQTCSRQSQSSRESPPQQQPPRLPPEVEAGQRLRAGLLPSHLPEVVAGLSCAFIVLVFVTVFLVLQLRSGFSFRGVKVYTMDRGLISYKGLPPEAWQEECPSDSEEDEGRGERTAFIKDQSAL
- Method: furin cleavage Z-score vs untreated control; higher = more cleavage, active = 3.5 or more, inactive = 1 or less, 8 variable residues between constant flanks
- Condition context: 30 min
The other results are listed elsewhere or left out. The true hit rate is not given.
In this exercise, the only acceptable responses are true = active, false = inactive

Observe how each entry below is paired with its result.
sequence_record="CARSSREKRRAGNASASA [FS-377]" label_class=true
sequence_record="CALTHIDAHFAGNASASA [HC943]" label_class=false
sequence_record="CARLRRASWVAGNASASA [FS-3197]" label_class=true

Kindly provide the recorded test outcome for the following sequence: CARPYCWHYPAGNASASA [HC402]
false

Kindly provide the recorded test outcome for the following sequence: CAPQDVKFPGAGNASASA [HC170]
false

Kindly provide the recorded test outcome for the following sequence: CARLRRRASQAGNASASA [FS-2995]
true

Kindly provide the recorded test outcome for the following sequence: CAPIDTTIMAAGNASASA [HC1437]
false

Kindly provide the recorded test outcome for the following sequence: CATQGCNCSIAGNASASA [HC311]
false

Data origin, for the record: the supplement of paper PMC3545927
